- Test Protocol: qHTS assay for identifying genotoxic compounds that show differential cytotoxicity against isogenic chicken DT40 cell lines with known DNA damage response pathways - Rad54/Ku70 mutant cell line (AID 743015); note: nearly all actives have a fitted effect of over 60% in size
- Stated Conditions: DT40 Rad54/Ku70 mutant viability, CellTiter-Glo, 40 h; series mostly up to 66.8 µM
Records with an inconclusive call do not appear. Activity calls are given as the source filed them. Calls come from the whole dose curve; as a rule, active = well fitted cell-killing curve with a large enough effect in the repeat runs; inconclusive = weak or mixed curves; inactive = no such curve, though single readings can be large or run the other way.
Outcome codes: active, inactive

| Compound Smiles | Assigned Category |
| --- | --- |
| c1ccc(CNc2ncnc3nc[nH]c23)cc1 | active |
| O=C1CC[C@H](C(=O)N2CCCCC2)N1 | inactive |
| C=CCOc1c(Br)cc(C(C)(C)c2cc(Br)c(OCC=C)c(Br)c2)cc1Br | inactive |
| C=C(C)C(=O)OC | inactive |
| CCCCOC(=O)[C@@H](C)Oc1ccc(Oc2ccc(C(F)(F)F)cn2)cc1 | inactive |
| CC(C)(CO)[C@@H](O)C(=O)NCCCO | inactive |
| FC(F)(F)/C(=N\OCC1OCCO1)c1ccc(Cl)cc1 | inactive |
| CCCCCCCCOC(C)=O | inactive |
| CC(C)CCC(=O)CCC(C)C | active |
| CCN(Cc1cccc(S(=O)(=O)O)c1)c1ccccc1 | inactive |
| CCOC(=O)C(C)(C)C | inactive |
| O=C(O)c1c(Cl)ccc(Cl)c1Cl | inactive |
| NS(=O)(=O)c1ccc(Cl)c(S(N)(=O)=O)c1 | inactive |

====

- Test Protocol: qHTS assay to identify aromatase inhibitors - cell viability counter screen (AID 743084);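 note: cells stimulated with testosterone during compound exposure; nearly all actives have a fitted effect of over 55% in size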
- Stated Conditions: MCF-7 aro ERE viability, CellTiter-Fluor, 24 h; series mostly up to 70.3 µM
Results filed as inconclusive are left out. The source made the active and inactive calls. The call rests on the fitted dose curve; in most records, active means well fitted cell-killing curve with a large enough effect in the repeat runs; inconclusive means weak or mixed curves, or effect the other way; inactive means no such curve, though single readings can be large or run the other way.
Value Kind: outcome

| Compound | Value Kind | Result |
| --- | --- | --- |
| COc1cc2c3cc1Oc1cc(ccc1O)C[C@@H]1c4c(cc(OC)c(O)c4Oc4ccc(cc4)C[C@@H]3N(C)CC2)CC[N+]1(C)C | outcome | inactive |
| NC(=O)C1(N2CCCCC2)CCN(CCCC(=O)c2ccc(F)cc2)CC1 | outcome | inactive |
| COc1cc2c(Nc3ccc(Br)cc3F)ncnc2cc1OCC1CCN(C)CC1 | outcome | inactive |
| Cc1ccccc1C(=O)N1CC/C(=N\OS(=O)(=O)O)c2ccc(Cl)cc21 | outcome | inactive |
| CC(C)COC(=O)CCCCC(=O)OCC(C)C | outcome | inactive |
| CCCCC(CC)COC(=O)c1ccccc1 (stereo not given) | outcome | inactive |
| CN(C)CCCNCCC#N | outcome | inactive |
| NS(=O)(=O)c1cc2c(cc1Cl)NC(CC1CCCC1)NS2(=O)=O (stereo not given) | outcome | inactive |
| CCCCCCCCCCCCCCCC(=O)NCCO | outcome | inactive |
| SCCSCCS | outcome | inactive |
| COCCOCCOCCOC | outcome | inactive |
| CCCOC(=O)CCCCC(=O)OCCC | outcome | inactive |
| CC(C)COC(=O)COc1ccc(Cl)cc1Cl | outcome | inactive |
| CCCO | outcome | inactive |
| O=C(O)c1ccccc1C(=O)Nc1ccc(S(=O)(=O)Nc2nccs2)cc1 | outcome | inactive |
| Nc1ccc(S(=O)(=O)Nc2ccccn2)cc1 | outcome | inactive |
| OC(CCN1CCCCC1)(c1ccccc1)c1ccccc1 | outcome | inactive |
| C=CC(C)(O)CC/C=C(\C)CC (stereo not given) | outcome | inactive |
| CCCCC(=O)N(C)C | outcome | inactive |
| CC(=O)OC(C(=O)c1ccccc1)c1ccccc1 (stereo not given) | outcome | inactive |
| CCOC(=O)CCc1ccccc1 | outcome | inactive |
| CCCCCC(=O)OCC | outcome | inactive |
| COc1cccc2sc(N)nc12 | outcome | inactive |
| Cc1cccc(Nc2ccncc2S(=O)(=O)NC(=O)NC(C)C)c1 | outcome | inactive |
| O=C(O)Cc1cccc(-c2cc(CCCCCCc3ccc(O[C@H]4O[C@H](CO)[C@@H](O)[C@H](O)[C@@H]4O)c(-c4cccc(CC(=O)O)c4)c3)ccc2O[C@H]2O[C@H](CO)[C@@H](O)[C@H](O)[C@@H]2O)c1 | outcome | inactive |
| N#CCCOCCOCCC#N | outcome | inactive |
| CC(=O)OC(C)c1ccccc1 (stereo not given) | outcome | inactive |
| CCCCOC(=O)[C@@H](C)Oc1ccc(Oc2ccc(C(F)(F)F)cn2)cc1 | outcome | inactive |
| CC(=O)c1ccc(OCC(=O)N2CCCCC2)cc1 | outcome | inactive |
| CCCCCCCCCCCCC | outcome | inactive |
| C1CCN2C[C@@H]3C[C@@H](CN4CCCC[C@@H]34)[C@H]2C1 | outcome | inactive |
| O=C(c1ccc2c(c1)C(=O)OC2=O)c1ccc2c(c1)C(=O)OC2=O | outcome | inactive |
| CN=C(NC#N)NCCSCc1csc(N=C(N)N)n1 | outcome | inactive |
| CCCCC(C)C(=O)O (stereo not given) | outcome | inactive |
| C=C[C@@H](C)CCC=C(C)C | outcome | inactive |
| NS(=O)(=O)c1cc2c(cc1Cl)NC(C(Cl)Cl)NS2(=O)=O (stereo not given) | outcome | inactive |
| C=C(C)C(=O)OC | outcome | inactive |
| CCN1CN(CC)CN(CC)C1 | outcome | inactive |
| O=c1[nH]c(=O)c2ccccc2o1 | outcome | inactive |
| COC(OC)C(C)c1ccccc1 (stereo not given) | outcome | inactive |
| O=S(=O)(O)SSS(=O)(=O)O | outcome | inactive |
| Cc1cc(O)c2c(c1)C(=O)c1cccc(O)c1C2=O | outcome | inactive |
| Cc1nc([N+](=O)[O-])cn1-c1ccc([N+](=O)[O-])cc1 | outcome | inactive |
| CC(C)CCO | outcome | inactive |
| CCCCC[Si](OCC)(OCC)OCC | outcome | inactive |
| CCC(=O)OCCC(C)CCC=C(C)C (stereo not given) | outcome | inactive |
| CCCOCCOCCOCCO | outcome | inactive |
| CCOc1ccc(NC(=O)OC(C)C)cc1OCC | outcome | inactive |
| O=C(Nc1cccc(C2=NCCN2)c1)Nc1cccc(C2=NCCN2)c1 | outcome | inactive |
| O=P(O)(O)OCC(O)CO (stereo not given) | outcome | inactive |
| CCN(Cc1cccc(S(=O)(=O)O)c1)c1ccccc1 | outcome | inactive |
| O=CN1CCOCC1 | outcome | inactive |
| O=S1(=O)CCCC1 | outcome | inactive |
| O=C(COCCOCCOCC(=O)Nc1c(I)cc(I)c(C(=O)O)c1I)Nc1c(I)cc(I)c(C(=O)O)c1I | outcome | inactive |
| Nc1ccc(/C=C/c2ccc(N)cc2S(=O)(=O)O)c(S(=O)(=O)O)c1 | outcome | inactive |

Recorded values, source PubChem BioAssay (Tox21).
